species: Rattus norvegicus; assay: DrugMatrix - Regimen: Daily Repeat; format: toxicity, organism-based, Sprague-Dawley; parameters: regimen Daily Repeat, gender Male, age 6-8 weeks; conditions: in vivo, po, 0 mg/kg, 120 h, tissue Plasma, route oral GAVAGE, dose level Control, time 5 day, vehicle 100 % WATER
Lab note: anything with LIPASE at or over 10 u/L counts as rule met; the rest go in rule not met.

| compound | assigned_class |
| --- | --- |
| O.O.O.O.O.O.[Cl-].[Cl-].[Sr+2] [STRONTIUM CHLORIDE HEXAHYDRATE] | rule not met |
| Cc1ccc(NC(=O)c2ccc(CN3CCN(C)CC3)cc2)cc1Nc1nccc(-c2cccnc2)n1 [IMATINIB] | rule not met |
| CS(=O)(=O)c1ccc([C@@H](O)[C@@H](CO)NC(=O)C(Cl)Cl)cc1 [THIAMPHENICOL] | rule not met |
| CN(C)CC[C@@H](c1ccc(Cl)cc1)c1ccccn1 [DEXCHLORPHENIRAMINE] | rule met |
| CN(C)CCOC(c1ccccc1)c1ccccc1 [DIPHENHYDRAMINE] | rule met |
| C[C@]12C=CC(=O)C=C1CC[C@@H]1[C@@H]2[C@@H](O)C[C@@]2(C)[C@H]1CC[C@]2(O)C(=O)CO [PREDNISOLONE] | rule not met |
| CCN(CC)CCNC(=O)c1cc(S(C)(=O)=O)ccc1OC [TIAPRIDE] | rule not met |
| CN1[C@@H]2CC[C@H]1C[C@@H](OC(=O)C(CO)c1ccccc1)C2 (some centres undefined) [ATROPINE] | rule met |
| NNc1nncc2ccccc12 [HYDRALAZINE] | rule met |

---

Entries annotated with measured LYMPHOCYTE
species: Rattus norvegicus; assay: DrugMatrix - Regimen: Daily Repeat; assay type: toxicity, organism-based, Sprague-Dawley; design: regimen Daily Repeat, gender Male, age 6-8 weeks; details: in vivo, po, 0 mg/kg, 120 h, tissue Blood, route oral GAVAGE, dose level Control, time 5 day, vehicle .5 % CMC

| molecule | unit_symbol | LYMPHOCYTE |
| --- | --- | --- |
| O=C1CN=C(c2ccccc2Cl)c2cc([N+](=O)[O-])ccc2N1 [CLONAZEPAM] | % | 88.33 |
| CC(=O)Oc1ccc(C(c2ccc(OC(C)=O)cc2)c2ccccn2)cc1 [BISACODYL] | % | 84.17 |
| O=C1Nc2ccc(Cl)cc2C(c2ccccc2Cl)=NC1O (stereo not drawn) [LORAZEPAM] | % | 90.83 |
| CN/C(=N/CCSCc1nc[nH]c1C)NC#N [CIMETIDINE] | % | 88.33 |
| NC1CCN(c2nc3c(cc2F)c(=O)c(C(=O)O)cn3-c2ccc(F)cc2F)C1 (stereo not drawn) [TOSUFLOXACIN] | % | 88.6 |
| CN(C)[C@@H]1C(O)=C(C(N)=O)C(=O)[C@@]2(O)C(O)=C3C(=O)c4c(O)ccc(Cl)c4[C@@](C)(O)[C@H]3C[C@@H]12 [CHLORTETRACYCLINE] | % | 91.33 |
| CN(C/C=C/C#CC(C)(C)C)Cc1cccc2ccccc12 [TERBINAFINE] | % | 88.6 |
| Cn1c(=O)c2c(ncn2CC(O)CO)n(C)c1=O (stereo not drawn) [DYPHYLLINE] | % | 91.33 |

---

organism: Rattus norvegicus; assay: DrugMatrix - Regimen: Daily Repeat; format: toxicity, organism-based, Sprague-Dawley; design: regimen Daily Repeat, gender Male, age 6-8 weeks; conditions: in vivo, po, 10 mg/kg, 72 h, tissue Blood, route oral GAVAGE, dose level Low, time 3 day, vehicle .5 % CMC
Entries annotated with measured MONOCYTE
metric_name: MONOCYTE

| molecule | reading |
| --- | --- |
| CNCCC(Oc1ccc(C(F)(F)F)cc1)c1ccccc1 (centres undefined) | 1.67% |
| O=C1CN=C(c2ccccc2Cl)c2cc([N+](=O)[O-])ccc2N1 | 1.33% |
| Fc1ccc(C(c2ccc(F)cc2)N2CCN(C/C=C/c3ccccc3)CC2)cc1 | 0.33% |
| O=C1C(CC[S+]([O-])c2ccccc2)C(=O)N(c2ccccc2)N1c1ccccc1 (centres undefined) | 1% |

---

Entries annotated with measured PLATELET COUNT
species on record: Rattus norvegicus; assay: DrugMatrix - Regimen: Daily Repeat; type: toxicity, organism-based, Sprague-Dawley; set-up: regimen Daily Repeat, gender Male, age 6-8 weeks; conditions: in vivo, po, 10 mg/kg, 120 h, tissue Blood, route oral GAVAGE, dose level Low, time 5 day, vehicle .5 % CMC
metric_name: PLATELET COUNT (x10E3/uL)

| molecule | metric_name | unit_symbol | reading |
| --- | --- | --- | --- |
| Fc1ccc(C(c2ccc(F)cc2)N2CCN(C/C=C/c3ccccc3)CC2)cc1 | PLATELET COUNT | x10E3/uL | 1316 |
| O=C1CN=C(c2ccccc2Cl)c2cc([N+](=O)[O-])ccc2N1 | PLATELET COUNT | x10E3/uL | 1168 |
| O=C1C(CC[S+]([O-])c2ccccc2)C(=O)N(c2ccccc2)N1c1ccccc1 (centres undefined) | PLATELET COUNT | x10E3/uL | 1182 |
| CNCCC(Oc1ccc(C(F)(F)F)cc1)c1ccccc1 (centres undefined) | PLATELET COUNT | x10E3/uL | 1162.33 |

---

Entries annotated with measured CHOLESTEROL
species on record: Rattus norvegicus; assay: DrugMatrix - Regimen: Daily Repeat; type: toxicity, organism-based, Sprague-Dawley; parameters: regimen Daily Repeat, gender Male, age 6-8 weeks; conditions: in vivo, po, 50 mg/kg, 120 h, tissue Plasma, route oral GAVAGE, dose level Low, time 5 day, vehicle .5 % CMC

| compound | CHOLESTEROL, mg/dL |
| --- | --- |
| NC1CCN(c2nc3c(cc2F)c(=O)c(C(=O)O)cn3-c2ccc(F)cc2F)C1 (centres undefined) [TOSUFLOXACIN] | 63.33 |
| CN(C)[C@@H]1C(O)=C(C(N)=O)C(=O)[C@@]2(O)C(O)=C3C(=O)c4c(O)ccc(Cl)c4[C@@](C)(O)[C@H]3C[C@@H]12 [CHLORTETRACYCLINE] | 58.33 |
| CCN1CCC[C@H]1CNC(=O)c1cc(S(N)(=O)=O)ccc1OC [LEVOSULPIRIDE] | 67.67 |
| Cc1cccc(C)c1OCC(C)N (centres undefined) [MEXILETINE] | 62 |

---

Entries annotated with measured MEAN CORPUSCULAR HEMOGLOBIN
species: Rattus norvegicus; experiment: DrugMatrix - Regimen: Daily Repeat; format: toxicity, organism-based, Sprague-Dawley; parameters: regimen Daily Repeat, gender Male, age 6-8 weeks; conditions: in vivo, po, 0 mg/kg, 120 h, tissue Blood, route oral GAVAGE, dose level Control, time 5 day, vehicle 100 % WATER
metric_name: MEAN CORPUSCULAR HEMOGLOBIN (pg)

| compound | reading |
| --- | --- |
| Cn1c(=O)c2[nH]cnc2n(C)c1=O.O | 24.42 |
| C[C@]12C=CC(=O)C=C1CC[C@@H]1[C@@H]2[C@@H](O)C[C@@]2(C)[C@H]1CC[C@]2(O)C(=O)CO | 23.65 |
| CN1[C@@H]2CC[C@H]1C[C@@H](OC(=O)C(CO)c1ccccc1)C2 (stereo partly drawn) | 25.73 |
| Cc1ccc(NC(=O)c2ccc(CN3CCN(C)CC3)cc2)cc1Nc1nccc(-c2cccnc2)n1 | 23.32 |
| CCN(CC)CCNC(=O)c1cc(S(C)(=O)=O)ccc1OC [TIAPRIDE] | 23.32 |
| CC(C)NCC(O)c1ccc(NS(C)(=O)=O)cc1 (stereo not drawn) | 24.63 |
| O.O.O.O.O.O.[Cl-].[Cl-].[Sr+2] [STRONTIUM CHLORIDE HEXAHYDRATE] | 23.32 |
| NNc1nncc2ccccc12 [HYDRALAZINE] | 23.95 |
| CC(C)(C)CC(C)(C)c1ccc(OCCOCC[N+](C)(C)Cc2ccccc2)cc1.[Cl-] [BENZETHONIUM CHLORIDE] | 23.95 |
| Oc1cccc(O)c1O | 23.92 |
| CS(=O)(=O)c1ccc([C@@H](O)[C@@H](CO)NC(=O)C(Cl)Cl)cc1 | 23.32 |
| CN(C)CCOC(c1ccccc1)c1ccccc1 [DIPHENHYDRAMINE] | 23.95 |
| CN(C)CC[C@@H](c1ccc(Cl)cc1)c1ccccn1 | 24.85 |

---

species: Rattus norvegicus; experiment: DrugMatrix - Regimen: Daily Repeat; format: toxicity, organism-based, Sprague-Dawley; design: regimen Daily Repeat, gender Male, age 6-8 weeks; details: in vivo, po, 0 mg/kg, 72 h, tissue Plasma, route oral GAVAGE, dose level Control, time 3 day, vehicle 100 % WATER
metric_name: LACTATE DEHYDROGENASE (u/L)

| compound | reading |
| --- | --- |
| O.O.O.O.O.O.[Cl-].[Cl-].[Sr+2] [STRONTIUM CHLORIDE HEXAHYDRATE] | 144.67 |
| CCN(CC)CCNC(=O)c1cc(S(C)(=O)=O)ccc1OC [TIAPRIDE] | 144.67 |
| Cc1ccc(NC(=O)c2ccc(CN3CCN(C)CC3)cc2)cc1Nc1nccc(-c2cccnc2)n1 | 144.67 |
| CN(C)CCOC(c1ccccc1)c1ccccc1 [DIPHENHYDRAMINE] | 536.5 |
| C[C@]12C=CC(=O)C=C1CC[C@@H]1[C@@H]2[C@@H](O)C[C@@]2(C)[C@H]1CC[C@]2(O)C(=O)CO | 264.5 |
| CC(C)(C)CC(C)(C)c1ccc(OCCOCC[N+](C)(C)Cc2ccccc2)cc1.[Cl-] [BENZETHONIUM CHLORIDE] | 536.5 |
| CC(C)NCC(O)c1ccc(NS(C)(=O)=O)cc1 (configuration not stated) | 263.83 |
| CN1[C@@H]2CC[C@H]1C[C@@H](OC(=O)C(CO)c1ccccc1)C2 (some centres not stated) | 143.17 |
| CS(=O)(=O)c1ccc([C@@H](O)[C@@H](CO)NC(=O)C(Cl)Cl)cc1 | 144.67 |
| CN(C)CC[C@@H](c1ccc(Cl)cc1)c1ccccn1 | 301.83 |
| NNc1nncc2ccccc12 [HYDRALAZINE] | 536.5 |
| Cn1c(=O)c2[nH]cnc2n(C)c1=O.O | 157.5 |
